The values you see were collected from ChEMBL document CHEMBL3611975.

- test_description: Cytotoxicity against MDCK cells assessed as cell viability after 48 hrs by MTT assay
- Type: cell-based, Canis lupus familiaris
- test_settings: dog, read-out: CTD50
Some molecules, each annotated with its measured CC50 at 48 h.
Quick reminder: number only, in µM, skip the unit.

Recorded CC50 at 48 h of `CCN(CC)c1ncnc2c1ncn2[C@H]1C[C@H]2[C@H](CO)[C@@H]1C[C@@H]2Cl` , please.
385

Recorded CC50 at 48 h of `CN1CCN(Nc2ncnc3c2ncn3[C@H]2C[C@H]3[C@H](CO)[C@@H]2C[C@@H]3Cl)CC1` , please.
840

Recorded CC50 at 48 h of `CCN(CC)CCNc1ncnc2c1ncn2[C@H]1C[C@H]2[C@H](CO)[C@@H]1C[C@@H]2Cl` , please.
731

---
Recorded CC50 at 48 h of `OC[C@H]1[C@@H]2C[C@H](n3cnc4c(NCc5ccncc5)ncnc43)[C@H]1C[C@@H]2Cl` , please.
712

Recorded CC50 at 48 h of `OC[C@H]1[C@@H]2C[C@H](n3cnc4c(NC5CC5)ncnc43)[C@H]1C[C@@H]2Cl` , please.
1130

Recorded CC50 at 48 h of `OC[C@H]1[C@@H]2C[C@H](n3cnc4c(NC5CCCC5)ncnc43)[C@H]1C[C@@H]2Cl` , please.
529

Recorded CC50 at 48 h of `OC[C@H]1[C@@H]2C[C@H](n3cnc4c(N5CCOCC5)ncnc43)[C@H]1C[C@@H]2Cl` , please.
997

Recorded CC50 at 48 h of `CN1CCN(c2ncnc3c2ncn3[C@H]2C[C@H]3[C@H](CO)[C@@H]2C[C@@H]3Cl)CC1` , please.
1000

Recorded CC50 at 48 h of `OC[C@H]1[C@@H]2C[C@H](n3cnc4c(NC5CCCCC5)ncnc43)[C@H]1C[C@@H]2Cl` , please.
528

Recorded CC50 at 48 h of `CCN(CC)CCCNc1ncnc2c1ncn2[C@H]1C[C@H]2[C@H](CO)[C@@H]1C[C@@H]2Cl` , please.
664

###

- test_description: Selectivity index, ratio of CTD50 for MDCK cells to EC50 for Influenza A virus (A/Puerto Rico/8/1934(H1N1))
- Format: toxicity, cell-based
- test_settings: dog
Rule for this label: 1.0 means selectivity ratio is less than 20; 0.0 means selectivity ratio is at least 20.

Does the reported selectivity ratio of the following compound sit strictly below 20? `CCN(CC)CCCNc1ncnc2c1ncn2[C@H]1C[C@H]2[C@H](CO)[C@@H]1C[C@@H]2Cl`
1.0

###

Some compounds, each annotated with its measured EC50.
- Test system: Coxsackievirus B4
- test_description: Antiviral activity against Human coxsackievirus B4 Powers infected in African green monkey Vero cells assessed as decrease in virus titer after 72 hrs by MTT assay
- Type: functional, organism-based
- test_settings: Enterovirus B

Completed entries (count: 3):
Recorded EC50 of `CCOc1ncnc2c1ncn2[C@H]1C[C@H]2[C@H](CO)[C@@H]1C[C@@H]2Cl` , please.
> 102 µM

Recorded EC50 of `OC[C@@H]1[C@@H]2C[C@H](Cl)[C@H]1C[C@@H]2Nc1ncnc2c1ncn2[C@H]1C[C@H]2[C@H](CO)[C@@H]1C[C@@H]2Cl` , please.
61 µM

Recorded EC50 of `COc1ccc(CCNc2ncnc3c2ncn3[C@H]2C[C@H]3[C@H](CO)[C@@H]2C[C@@H]3Cl)cc1` , please.
> 9 µM

---
Recorded EC50 of `OC[C@H]1[C@@H]2C[C@H](n3cnc4c(NCc5cccnc5)ncnc43)[C@H]1C[C@@H]2Cl` , please.
> 86 µM

Recorded EC50 of `OC[C@H]1[C@@H]2C[C@H](n3cnc4c(NC5CCCCC5)ncnc43)[C@H]1C[C@@H]2Cl` , please.
> 11 µM

Recorded EC50 of `CN1CCN(Nc2ncnc3c2ncn3[C@H]2C[C@H]3[C@H](CO)[C@@H]2C[C@@H]3Cl)CC1` , please.
> 255 µM
